- experimental target: human dopamine D3 receptors (Homo sapiens)
- Construct: expressed in transfected cells; membranes)
- protocol: Dopamine D3 receptor binding ([125I]-iodosulpride displacement)
- assay setup: Table 7; compounds of formula IIa; read-out: D3
- Experimental: The substance to be tested was either dissolved in methanol/Chremophor® (BASF-AG) or in dimethyl sulfoxide and then diluted with water to the desired concentration. Each assay mixture was run in triplicate. […] The inhibition curves were analyzed by means of iterative nonlinear regression analysis using the Statistical Analysis System (SAS) which is similar to the “LIGAND” program described by Munson and Rodbard.
property label: Ki (nM)
Number in nM, nothing else.

Record excerpt, results attached:
molecule	Ki, nM
COCc1nnc(SCCCN2CCN(c3cc(C(F)(F)F)nc(C(C)(C)C)n3)CC2)n1C.Cl [c.16, hydrochloride]	0.65
CCCc1cc(N2CCN(CCCSc3nnc(CC)n3C)CC2)nc(C(C)(C)C)n1.Cl [c.11, hydrochloride]	1.7

Prompt line: Please indicate Ki recorded for CCc1nnc(SCCCN2CCN(c3cc(C(F)(F)F)nc(C(C)(C)C)n3)CC2)n1C.Cl [c.15, hydrochloride]
Response line: 2

Prompt line: Return reported Ki. Input molecule: COCc1nnc(SCCCN2CCN(c3cc(C(F)F)nc(C(C)(C)C)n3)CC2)n1C.Cl [c.4, hydrochloride]
Response line: 1.5

Prompt line: Tell me Ki reported for CCCc1cc(N2CCN(CCCSc3nnc(COC)n3C)CC2)nc(C(C)(C)C)n1.Cl [c.12, hydrochloride]
Response line: 2.4

Prompt line: Give the reported Ki for this molecule. Cl.Cn1c(SCCCN2CCN(c3cc(C(F)F)nc(C(C)(C)C)n3)CC2)nnc1C(C)(C)C [c.7, hydrochloride]
Response line: 1.2

Prompt line: Quickly give me recorded Ki for Cc1nnc(SCCCN2CCN(c3cc(C(F)(F)F)nc(C(C)(C)C)n3)CC2)n1C.Cl [c.14, hydrochloride]
Response line: 1.5

----------
- experimental target: human dopamine D2L receptors (long isoform) (Homo sapiens, UniProt P14416)
- Construct: expressed in transfected cells; membranes)
- Sequence (P14416 whole entry, canonical isoform): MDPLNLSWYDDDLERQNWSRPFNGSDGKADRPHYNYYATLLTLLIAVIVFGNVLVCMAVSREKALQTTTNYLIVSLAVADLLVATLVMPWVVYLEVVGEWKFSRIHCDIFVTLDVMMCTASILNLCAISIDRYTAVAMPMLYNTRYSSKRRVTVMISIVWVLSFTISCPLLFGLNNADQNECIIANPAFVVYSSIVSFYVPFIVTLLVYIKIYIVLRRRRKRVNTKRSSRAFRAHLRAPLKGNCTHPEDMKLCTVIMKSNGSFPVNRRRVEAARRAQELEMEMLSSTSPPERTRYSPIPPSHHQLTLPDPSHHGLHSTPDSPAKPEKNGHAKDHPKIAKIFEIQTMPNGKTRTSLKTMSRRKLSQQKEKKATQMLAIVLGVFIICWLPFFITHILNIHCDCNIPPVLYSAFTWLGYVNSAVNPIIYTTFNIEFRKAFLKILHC
- protocol: Dopamine D2L receptor binding ([125I] iodospiperone), basis of selectivity Ki(D2)/Ki(D3)
- assay setup: Table 5; D2L vs D3
Listed compounds paired with reported Selectivity [Ki(D2)/Ki(D3)]
Respond using a number only.

compound	Selectivity [Ki(D2)/Ki(D3)]
Cl.Cn1c(-c2ccc(F)cc2)nnc1S(=O)(=O)CCCN1CCN(c2cc(C(F)(F)F)nc(C(C)(C)C)n2)CC1	56
Cc1nnc(S(=O)(=O)CCCN2CCN(c3cc(C(C)(C)C)nc(C(C)(C)C)n3)CC2)n1C	34
Cc1nnc([S+]([O-])CCCN2CCN(c3cc(C4(C)CC4)nc(C(C)(C)C)n3)CC2)n1C (stereo not shown)	20

Continue with the next compound.
Prompt line: Provide measured Selectivity [Ki(D2)/Ki(D3)] value, entry: Cc1nnc(S(=O)(=O)CCCN2CCN(c3cc(C4(C)CC4)nc(C(C)(C)C)n3)CC2)n1C
Response line: 37

----------
- experimental target: human dopamine D3 receptors (Homo sapiens, UniProt P35462)
- Construct: expressed in transfected cells; membranes)
- Sequence (P35462 whole entry): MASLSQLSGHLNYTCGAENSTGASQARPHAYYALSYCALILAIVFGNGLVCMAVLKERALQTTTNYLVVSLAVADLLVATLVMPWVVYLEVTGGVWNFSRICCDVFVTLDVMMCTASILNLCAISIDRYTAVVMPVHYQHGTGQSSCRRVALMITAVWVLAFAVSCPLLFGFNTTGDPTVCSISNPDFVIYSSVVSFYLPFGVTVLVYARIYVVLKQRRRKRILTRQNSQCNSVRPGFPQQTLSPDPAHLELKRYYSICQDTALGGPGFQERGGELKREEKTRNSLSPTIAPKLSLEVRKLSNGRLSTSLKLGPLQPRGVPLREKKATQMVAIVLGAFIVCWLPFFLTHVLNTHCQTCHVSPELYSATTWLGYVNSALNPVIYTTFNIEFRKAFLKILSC
- protocol: Dopamine D3 receptor binding ([125I]-iodosulpride displacement)
- assay setup: compounds II; read-out: Ki D3 values
Structures can show the parent of a compound that is named as a salt.
property label: Ki

These recorded examples may help you get a feel for the data.
compound	experimental target	meas value
CCc1cc(N2CCN(CCCSc3nnc(C(F)(F)F)n3C)CC2)nc(C(C)(C)C)n1 [c.28, hydrochloride]	human dopamine D3 receptors (Homo sapiens, UniProt P35462)	< 5 nM
COCc1nnc(SCCCN2CCN(c3cc(C(F)F)nc(C(C)(C)C)n3)CC2)n1C.Cl [c.4, hydrochloride]	human dopamine D3 receptors (Homo sapiens, UniProt P35462)	< 5 nM

Prompt line: Query Ki for CCc1nnc(SCCCN2CCN(c3cc(C(F)F)nc(C(C)(C)C)n3)CC2)n1C [c.29, hydrochloride]
Response line: < 5 nM
